- Test system: auricle of hairless mouse (HR-1, female)
- protocol summary: External blood circulation enhancing action: vasodilatory effect (red spots) on auricle of hairless mouse
- Format: in vivo
- measurement setup: 5 wt % in liquid paraffin, applied to right ear
recorded metric: Vasodilatory effect for hairless mouse (red spots, visual)

| compound | reported measurement |
| --- | --- |
| CCOc1cc(COC(=O)CCCCCCC(C)C)ccc1O | ∘ |
| COc1cc(CO)ccc1O [vanillyl alcohol, reference compound] | x |
| CC(C)CCCCCCC(=O)OCc1ccc2c(c1)OCO2 [compound A, Piperonyl 8-methylnonanoate] | Δ |

----------
- Test system: auricle of hairless mouse (HR-1, female)
- protocol summary: External blood circulation enhancing action: vasodilatory effect (red spots) on auricle of hairless mouse
- Format: in vivo
- Design: key: ◯: clear red spots can be confirmed; Δ: weak red spots can be confirmed; x: no development of red spots
- measurement setup: 5 wt % in liquid paraffin, applied to right ear
recorded metric: Vasodilatory effect for hairless mouse (red spots, visual)

| compound | reported measurement |
| --- | --- |
| CC(C)CCCCCC(=O)OCc1ccc2c(c1)OCO2 [compound A-1, Piperonyl 7-methyloctanoate] | x |
| COc1cc(CNC(=O)CCCC/C=C/C(C)C)ccc1O [capsaicin, reference compound] | ∘ |
| COc1cc(COC(=O)CCCCCCC(C)C)ccc1OC(C)=O | ∘ |
| COc1cc(COC(=O)CCCC/C=C/C(C)C)ccc1O [capsiate, reference compound] | ∘ |
| COc1ccc(COC(=O)CCCCCC(C)C)cc1O [compound B-1, Isovanillyl 7-Methyloctanoate] | Δ |
| COc1ccc(COC(=O)CCCCCCC(C)C)cc1OC [compound D, Veratryl 8-methylnonanoate] | x |
| CC(C)CCCCCCC(=O)OCc1ccc(O)cc1 [compound F, 4-hydroxybenzyl 8-methylnonanoate] | Δ |
| CCC(C)CCCCC(=O)OCc1ccc(OC)cc1 (stereo not shown) [compound C-2, 4-methoxybenzyl 6-methyloctanoate] | x |
| COc1ccc(COC(=O)CCCCCCC(C)C)cc1 [compound C, 4-methoxybenzyl 8-methylnonanoate] | ∘ |
| COc1ccc(COC(=O)CCCCCC(C)C)cc1 [compound C-1, 4-methoxybenzyl 7-methyloctanoate] | Δ |
| COc1cc(COC(=O)CCCCCC(C)C)ccc1O [nordihydrocapsiate, reference compound] | ∘ |
| COc1cc(COC(=O)CCCCCCC(C)C)ccc1O [dihydrocapsiate, reference compound] | ∘ |
| CC(C)CCCCC(=O)OCc1ccc2c(c1)OCO2 [compound A-2, Piperonyl 6-methylheptanoate] | x |
| CCC(C)CCCCCC(=O)OCc1ccc(OC)c(O)c1 (stereo not shown) [compound B-2, Isovanillyl 7-methyl Nonanoate] | x |
| COc1ccc(COC(=O)CCCCCCC(C)C)cc1O [compound B, Isovanillyl 8-methylnonanoate] | ∘ |
| COc1cc(COC(=O)CCCC/C=C/C(C)C)ccc1OC(C)=O | ∘ |

----------
- protocol summary: Stability on contact with silica gel, yield (recovery rate) of PTLC purification as index
- Assay type: physicochemical
recorded metric: Yield (recovery rate) after purification by PTLC, index of stability (%)

| molecule | reported measurement |
| --- | --- |
| COc1ccc(COC(=O)CCCCCCC(C)C)cc1O [compound B, Isovanillyl 8-methylnonanoate] | 81.0 |
| COc1ccc(COC(=O)CCCCCCC(C)C)cc1OC [compound D, Veratryl 8-methylnonanoate] | 89.1 |
| COc1ccc(COC(=O)CCCCCCC(C)C)cc1 [compound C, 4-methoxybenzyl 8-methylnonanoate] | 90.2 |
| CCCCCCCCCC(=O)OCc1ccc(O)c(OC)c1 [vanillyl decanoate, reference compound] | 43.1 |
| CC(C)CCCCCCC(=O)OCc1ccc2c(c1)OCO2 [compound A, Piperonyl 8-methylnonanoate] | 84.3 |

Values from patent US7981460B2
